Please provide measured pEC50 for the entries that follow.
Species: Oryctolagus cuniculus
Test: Effective concentration against ET-1 stimulated arachidonic acid release in rabbit renal artery vascular smooth muscle cells
Assay type: functional
Where a SMILES comes first, the peptide text is derived from it. [ ]: non-standard residue; d: D form. dDip = N[C@@H](C(=O)O)C(c1ccccc1)c1ccccc1; Orn = NCCC[C@H](N)C(=O)O
Just the number, please; pEC50 means minus log10 of the concentration in mol/L.

Task: Entry under review: CC[C@H](C)[C@H](NC(=O)[C@H](CC(=O)O)NC(=O)[C@H](CCC(=O)O)NC(=O)[C@H](NC(C)=O)C(c1ccccc1)c1ccccc1)C(=O)N[C@H](C(=O)N[C@@H](Cc1c[nH]c2ccccc12)C(=O)O)[C@@H](C)CC (Ac-[dDip]EDIIW-OH) . Reported pEC50?
Output: 6.89

Task: Entry under review: CC[C@H](C)[C@H](NC(=O)[C@H](CC(=O)O)NC(=O)[C@H](CC(C)C)NC(=O)[C@H](NC(C)=O)C(c1ccccc1)c1ccccc1)C(=O)N[C@H](C(=O)N[C@@H](Cc1c[nH]c2ccccc12)C(=O)O)C(C)C (Ac-[dDip]LDIVW-OH) . Reported pEC50?
Output: 5.59

Task: Entry under review: CC[C@H](C)[C@H](NC(=O)[C@H](CC(=O)O)NC(=O)[C@H](CCCN)NC(=O)[C@H](NC(C)=O)C(c1ccccc1)c1ccccc1)C(=O)N[C@H](C(=O)N[C@@H](Cc1c[nH]c2ccccc12)C(=O)O)[C@@H](C)CC (Ac-[dDip][Orn]DIIW-OH) . Reported pEC50?
Output: 7.52

Task: Entry under review: CC[C@H](C)[C@H](NC(=O)[C@H](CC(=O)O)NC(=O)[C@H](CC(C)C)NC(=O)[C@H](NC(C)=O)C(c1ccccc1)c1ccccc1)C(=O)N[C@H](C(=O)N[C@@H](Cc1ccc(O)cc1)C(=O)O)[C@@H](C)CC (Ac-[dDip]LDIIY-OH) . Reported pEC50?
Output: 5.37

Task: Entry under review: CC[C@H](C)[C@H](NC(=O)[C@@H](NC(=O)[C@H](CC(=O)O)NC(=O)[C@H](CC(C)C)NC(=O)[C@H](NC(C)=O)C(c1ccccc1)c1ccccc1)C(C)C)C(=O)N[C@@H](Cc1c[nH]c2ccccc12)C(=O)O (Ac-[dDip]LDVIW-OH) . Reported pEC50?
Output: 7.54

Task: Entry under review: CC[C@H](C)[C@H](NC(=O)[C@H](Cc1ccccc1)NC(=O)[C@H](CC(C)C)NC(=O)[C@H](NC(C)=O)C(c1ccccc1)c1ccccc1)C(=O)N[C@H](C(=O)N[C@@H](Cc1c[nH]c2ccccc12)C(=O)O)[C@@H](C)CC (Ac-[dDip]LFIIW-OH) . Reported pEC50?
Output: 5.89
